This collection of values is drawn from patent US5925769A.

Assayed target: CO (Rattus norvegicus, UniProt Q63921)
Construct: the supernatant was saved as the source of enzymes; endogenous in cells; host or cells: RBL-1 (rat basophilic leukemia) cells
Sequence (Q63921 27-602): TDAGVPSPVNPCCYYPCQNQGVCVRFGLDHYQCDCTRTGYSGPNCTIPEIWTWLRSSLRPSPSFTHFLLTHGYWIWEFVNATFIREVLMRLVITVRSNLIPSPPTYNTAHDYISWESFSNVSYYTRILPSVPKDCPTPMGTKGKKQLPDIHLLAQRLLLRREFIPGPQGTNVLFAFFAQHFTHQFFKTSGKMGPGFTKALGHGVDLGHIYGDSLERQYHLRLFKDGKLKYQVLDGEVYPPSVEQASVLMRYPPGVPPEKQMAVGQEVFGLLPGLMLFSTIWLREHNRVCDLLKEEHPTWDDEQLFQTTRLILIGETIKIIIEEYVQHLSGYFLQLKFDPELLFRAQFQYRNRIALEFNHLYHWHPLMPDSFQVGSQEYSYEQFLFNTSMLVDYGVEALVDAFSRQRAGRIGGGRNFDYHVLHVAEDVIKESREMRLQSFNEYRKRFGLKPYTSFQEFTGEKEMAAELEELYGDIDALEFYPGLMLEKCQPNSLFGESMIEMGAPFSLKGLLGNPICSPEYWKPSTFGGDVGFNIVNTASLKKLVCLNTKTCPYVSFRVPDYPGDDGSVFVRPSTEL
Assay method text: Procedure III: CO (PgD2) in intact RBL-1 cells
Type: cell-based
Assay context: calcium ionophore A 23187, read-out: Proc. III CO IC50
pIC50: −log10 of the molar value.
Measured attribute: pIC50

COC(=O)N(O)C(C)C#Cc1cc(-c2ccc(Cl)cc2)n(-c2ccc(OC)cc2)n1 (stereo not shown) | 6.54

(A) CCc1ccc(-c2cc(C#CC(C)N(O)C(C)=O)nn2-c2ccc(OC)cc2)cc1 (stereo not shown)
(B) COc1ccc(-n2nc(C#CCN(O)C(=O)c3ccncc3)cc2-c2ccc(C)cc2)cc1
(C) COc1ccc(-n2nc(C#CC(C)N(O)C(N)=O)cc2-c2ccc(C)cc2)cc1 (stereo not shown)
Reorder the items by pIC50, least to greatest. Sort and list the labels as requested.
B, C, A
(B: 5.26, C: 5.85, A: 6.47)

----------
Assayed target: 5-LO (Rattus norvegicus, UniProt P12527)
Construct: the supernatant was saved as the source of enzymes; endogenous in cells; host or cells: RBL-1 (rat basophilic leukemia) cells
Sequence (P12527 whole entry): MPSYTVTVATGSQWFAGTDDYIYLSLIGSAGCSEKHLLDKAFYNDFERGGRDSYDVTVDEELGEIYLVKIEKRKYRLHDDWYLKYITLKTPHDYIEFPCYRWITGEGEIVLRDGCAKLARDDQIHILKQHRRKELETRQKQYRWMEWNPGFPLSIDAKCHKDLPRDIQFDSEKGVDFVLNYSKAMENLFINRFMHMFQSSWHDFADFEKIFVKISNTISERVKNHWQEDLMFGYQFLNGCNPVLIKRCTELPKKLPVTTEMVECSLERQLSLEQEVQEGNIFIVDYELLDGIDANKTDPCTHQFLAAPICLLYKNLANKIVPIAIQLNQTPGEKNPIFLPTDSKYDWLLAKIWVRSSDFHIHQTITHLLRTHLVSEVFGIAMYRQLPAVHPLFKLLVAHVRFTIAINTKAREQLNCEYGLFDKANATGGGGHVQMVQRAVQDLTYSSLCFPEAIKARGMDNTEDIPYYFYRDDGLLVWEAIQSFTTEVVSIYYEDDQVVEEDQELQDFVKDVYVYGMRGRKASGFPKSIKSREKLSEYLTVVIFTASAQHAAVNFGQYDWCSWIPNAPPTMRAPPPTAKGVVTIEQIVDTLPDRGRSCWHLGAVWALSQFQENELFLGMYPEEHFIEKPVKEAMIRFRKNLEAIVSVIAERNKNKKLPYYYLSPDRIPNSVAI
Assay method text: Procedure II: 5-LO activity (5-HETE) in broken RBL-1 cells (homogenate supernatant)
Format: biochemical
Assay context: 20 min; @ 10 .quadrature.M; RBL-1 broken cell supernatant; read-out: Proc. II 5-LO % inhibition
Measured attribute: inhibition at 10 µM (%)

Examples with answers:
CCc1ccc(-c2cc(C#CC(C)N(O)C(=O)CCC(=O)O)nn2-c2ccc(OC)cc2)cc1 (centres unmarked) [Cpd 33] | 37
COc1ccc(-n2nc(C#CC(C)N(O)C(=O)CCC(=O)O)cc2-c2ccc(Cl)cc2)cc1 (centres unmarked) [Cpd 39] | 74
COc1ccc(-n2nc(C#CC(C)N(O)C(=O)N3CCCCC3)cc2-c2ccc(Cl)cc2)cc1 (centres unmarked) [Cpd 9] | 76

(1) COc1ccc(-n2nc(C#CC(C)N(O)C(=O)c3ccco3)cc2-c2ccc(C)cc2)cc1 (centres unmarked) [Cpd 25]
(2) COc1ccc(-n2nc(C#CC(C)N(O)C(=O)CCl)cc2-c2ccc(C)cc2)cc1 (centres unmarked) [Cpd 21]
Lab log: flag the item ( 1 or 2 ) with the smaller inhibition at 10 µM figure. Pick one and reply with its label.
1
(1: 70%, 2: 100%)

----------
Assayed target: 5-LO (Rattus norvegicus)
Construct: the supernatant was saved as the source of enzymes; endogenous in cells; host or cells: RBL-1 (rat basophilic leukemia) cells
Assay method text: Procedure II: 5-LO activity (5-HETE) in broken RBL-1 cells (homogenate supernatant)
Type: biochemical
Assay context: RBL-1 broken cell supernatant; read-out: Proc. II 5-LO IC50
pIC50: −log10 of the molar value.
Measured attribute: pIC50

COc1ccc(-n2nc(C#CC(C)N(O)C(=O)C(F)(F)F)cc2-c2ccc(C)cc2)cc1 (centres unmarked) | 5.78
COc1ccc(-n2nc(C#CCN(O)C(N)=O)cc2-c2ccc(Cl)cc2)cc1 | 7.10
COc1ccc(-n2nc(C#CC(C)N(O)C(N)=O)cc2-c2ccc(Cl)cc2)cc1 (centres unmarked) | 8.00
CCc1ccc(-c2cc(C#CC(C)N(O)C(C)=O)nn2-c2ccc(OC)cc2)cc1 (centres unmarked) | 6.57
COc1ccc(-n2nc(C#CCN(O)C(N)=O)cc2-c2ccc(C)cc2)cc1 | 7.15

(P) CCC(C#Cc1cc(-c2ccc(C)cc2)n(-c2ccc(OC)cc2)n1)N(O)C(N)=O (centres unmarked)
(Q) COc1ccc(-n2nc(C#CC(C)N(O)C(=O)c3ccccc3)cc2-c2ccc(Cl)cc2)cc1 (centres unmarked)
Lab log: flag the item ( P or Q ) with the smaller pIC50 figure. Pick one and reply with its label.
Q

(I) COc1ccc(-n2nc(C#CC(C)N(O)C(C)=O)cc2-c2ccc(C)cc2)cc1 (centres unmarked)
(II) COc1ccc(-n2nc(C#CC(C(C)C)N(O)C(N)=O)cc2-c2ccc(C)cc2)cc1 (centres unmarked)
Name the one with the greater pIC50 value, either I or II as given. Pick one and reply with its label.
I
(I: 7.10, II: 6.62)

(I) COc1ccc(-n2nc(C#CC(C)N(O)C(=O)C(C)C)cc2-c2ccc(C)cc2)cc1 (centres unmarked)
(II) COC(=O)N(O)C(C)C#Cc1cc(-c2ccc(C)cc2)n(-c2ccc(OC)cc2)n1 (centres unmarked)
Name the one with the greater pIC50 value, either I or II as given. Pick one and reply with its label.
I
